Source: ChEMBL document CHEMBL1817572

- Test target: UniProt:P30518
- Sequence (P30518 whole entry): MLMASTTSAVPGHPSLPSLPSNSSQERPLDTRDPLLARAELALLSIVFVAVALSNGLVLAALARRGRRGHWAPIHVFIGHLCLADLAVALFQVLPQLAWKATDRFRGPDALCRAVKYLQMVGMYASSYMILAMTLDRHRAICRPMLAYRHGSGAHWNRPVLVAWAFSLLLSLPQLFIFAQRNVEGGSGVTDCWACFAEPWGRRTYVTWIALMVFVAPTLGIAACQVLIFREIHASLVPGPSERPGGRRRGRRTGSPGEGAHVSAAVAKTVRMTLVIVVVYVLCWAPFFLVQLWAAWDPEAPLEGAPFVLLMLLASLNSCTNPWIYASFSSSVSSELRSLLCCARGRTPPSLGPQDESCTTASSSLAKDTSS
- Test description: Agonist activity at recombinant human vasopressin V2 receptor expressed in HEK293 cells by luciferase reporter gene assay
- Assay type: functional, cell-based
- Condition details: read-out: EC50
Numbered stars: 1 amine (or outer) side, 2 acyl side, 3 side chain; on linkers, the order of the positions; unused ones are H or OH. Bridge positions count the residues as written; N and C are the ends. Square brackets hold non-standard residues; d marks the D form. Peptide text beside a SMILES is read from it. * marks the point of attachment. X5 = CC(C)CCNCCC[C@H](N[*:1])C(=O)[*:2]; Dab(iPr) = CC(C)NCC[C@H](N)C(=O)O; Aad = N[C@@H](CCCC(=O)O)C(=O)O; Orn = NCCC[C@H](N)C(=O)O; Dab = NCC[C@H](N)C(=O)O; Dap = NC[C@H](N)C(=O)O; NHOH = ON*
Consider the following molecules; for each one, report its pEC50.
One number for each entry, as −log10 of the molar value.

- CC[C@H](C)[C@@H]1NC(=O)[C@H](Cc2ccccc2)NC(=O)[C@@H](N)CSSC[C@@H](C(=O)N2CCC[C@H]2C(=O)N[C@@H](CCCN)C(=O)NCC(N)=O)NC(=O)[C@H](CC(N)=O)NC(=O)[C@H](CC(=O)NO)NC1=O (H-CFID(NHOH)NCP[Orn]G-NH2; disulfide 1-6): 5.59
- CCNC(=O)C[C@@H]1NC(=O)[C@H]([C@@H](C)CC)NC(=O)[C@H](Cc2ccccc2)NC(=O)[C@@H](N)CSSC[C@@H](C(=O)N2CCC[C@H]2C(=O)N[C@@H](CCN)C(=O)NCC(N)=O)NC(=O)[C@H](CC(N)=O)NC1=O (H-CFID(NHEt)NCP[Dab]G-NH2; disulfide 1-6): 5.80
- CC[C@H](C)[C@@H]1NC(=O)[C@H](Cc2ccccc2)NC(=O)[C@@H](N)CSSC[C@@H](C(=O)N2CCC[C@H]2C(=O)N[C@@H](CN)C(=O)NCC(N)=O)NC(=O)[C@H](CC(N)=O)NC(=O)[C@H](CCC(N)=O)NC1=O (H-CFIQNCP[Dap]G-NH2; disulfide 1-6): 6.14

// input: 2 molecules below; output: pEC50 for each
1. CC[C@H](C)[C@@H]1NC(=O)[C@H](Cc2ccccc2)NC(=O)[C@@H](N)CSSC[C@@H](C(=O)N2CCC[C@H]2C(=O)N[C@@H](CCNC(C)C)C(=O)NCC(N)=O)NC(=O)[C@H](CC(N)=O)NC(=O)[C@H](CCCC(N)=O)NC1=O (H-CFI[Aad](NH2)NCP[Dab(iPr)]G-NH2; disulfide 1-6)
2. CC[C@H](C)[C@@H]1NC(=O)[C@H](Cc2ccccc2)NC(=O)[C@@H](N)CSSC[C@@H](C(=O)N2CCC[C@H]2C(=O)N[C@@H](CCCNCCC(C)C)C(=O)NCC(N)=O)NC(=O)[C@H](CC(N)=O)NC(=O)[C@H](CCC(N)=O)NC1=O (H-CFIQNCP[X5]G-NH2; disulfide 1-6)

Out:
[5.96, 6.72]

* * *

Record form. Attribute: Ratio EC50. Fill in for each entry.
- Species on record: Homo sapiens
- Test description: Selectivity ratio of EC50 for human oxytocin receptor to EC50 for human vasopressin V1a receptor
Bridge positions count the residues as written; N and C are the ends. Square brackets hold non-standard residues; d marks the D form. Peptide text beside a SMILES is read from it. * marks the point of attachment. Orn(iPr) = CC(C)NCCC[C@H](N)C(=O)O; Orn(Pr) = CCCNCCC[C@H](N)C(=O)O; Cha = N[C@@H](CC1CCCCC1)C(=O)O; NHCH(CH2OH)2 = OCC(CO)N*; Orn = NCCC[C@H](N)C(=O)O

Consider the following illustrative entries.
• CC[C@H](C)[C@@H]1NC(=O)[C@H](Cc2ccccc2)NC(=O)[C@@H](N)CSSC[C@@H](C(=O)N2CCC[C@H]2C(=O)N[C@@H](CCCN)C(=O)NCC(N)=O)NC(=O)[C@H](CC(N)=O)NC(=O)[C@H](CC(N)=O)NC1=O (H-CFINNCP[Orn]G-NH2; disulfide 1-6) = > 7100
• CC[C@H](C)[C@@H]1NC(=O)[C@H](CC2CCCCC2)NC(=O)[C@@H](N)CSSC[C@@H](C(=O)N2CCC[C@H]2C(=O)N[C@@H](CCCNC(C)C)C(=O)NCC(N)=O)NC(=O)[C@H](CC(N)=O)NC(=O)[C@H](CC(N)=O)NC1=O (H-C[Cha]INNCP[Orn(iPr)]G-NH2; disulfide 1-6) = > 7100
• CC[C@H](C)[C@@H]1NC(=O)[C@H](Cc2ccccc2)NC(=O)[C@@H](N)CSSC[C@@H](C(=O)N2CCC[C@H]2C(=O)N[C@@H](CCCN)C(=O)NCC(N)=O)NC(=O)[C@H](CC(N)=O)NC(=O)[C@H](CC(=O)NC(CO)CO)NC1=O (H-CFID(NHCH(CH2OH)2)NCP[Orn]G-NH2; disulfide 1-6) = > 620

In: Sample CCCNCCC[C@H](NC(=O)[C@@H]1CCCN1C(=O)[C@@H]1CSSC[C@H](N)C(=O)N[C@@H](Cc2ccccc2)C(=O)N[C@@H]([C@@H](C)CC)C(=O)N[C@@H](CC(N)=O)C(=O)N[C@@H](CC(N)=O)C(=O)N1)C(=O)NCC(N)=O (H-CFINNCP[Orn(Pr)]G-NH2; disulfide 1-6) — what was its Ratio EC50?
Out: > 6600

* * *

- Organism: Homo sapiens
- Test description: Selectivity ratio of EC50 for human vasopressin V1b receptor to EC50 for human vasopressin V1a receptor
Numbered stars: 1 amine (or outer) side, 2 acyl side, 3 side chain; on linkers, the order of the positions; unused ones are H or OH. Bridge positions count the residues as written; N and C are the ends. Square brackets hold non-standard residues; d marks the D form. Peptide text beside a SMILES is read from it. * marks the point of attachment. X4 = CONC(=O)CC[C@H](N[*:1])C(=O)[*:2]; NHCH(CH2OH)2 = OCC(CO)N*; Orn = NCCC[C@H](N)C(=O)O
Result type: Ratio EC50
One number for each entry.

* CC[C@H](C)[C@@H]1NC(=O)[C@H](Cc2ccccc2)NC(=O)[C@@H](N)CSSC[C@@H](C(=O)N2CCC[C@H]2C(=O)N[C@@H](CCCN)C(=O)NCC(N)=O)NC(=O)[C@H](CC(N)=O)NC(=O)[C@H](CC(=O)NC)NC1=O (H-CFID(NHMe)NCP[Orn]G-NH2; disulfide 1-6) | 10

Give measured Ratio EC50 for every item shown.
1. CC[C@H](C)[C@@H]1NC(=O)[C@H](Cc2ccccc2)NC(=O)[C@@H](N)CSSC[C@@H](C(=O)N2CCC[C@H]2C(=O)N[C@@H](CCCN)C(=O)NCC(N)=O)NC(=O)[C@H](CC(N)=O)NC(=O)[C@H](CCC(=O)NOC)NC1=O (H-CFI[X4]NCP[Orn]G-NH2; disulfide 1-6)
2. CC[C@H](C)[C@@H]1NC(=O)[C@H](Cc2ccccc2)NC(=O)[C@@H](N)CSSC[C@@H](C(=O)N2CCC[C@H]2C(=O)N[C@@H](CCCN)C(=O)NCC(N)=O)NC(=O)[C@H](CC(N)=O)NC(=O)[C@H](CC(=O)NC(CO)CO)NC1=O (H-CFID(NHCH(CH2OH)2)NCP[Orn]G-NH2; disulfide 1-6)

Out:
[25, 3.8]

* * *

So I've got a bunch of compounds here, and I need their pEC50 values.
- Test target: Oxytocin receptor (Homo sapiens)
- Sequence (P30559 whole entry): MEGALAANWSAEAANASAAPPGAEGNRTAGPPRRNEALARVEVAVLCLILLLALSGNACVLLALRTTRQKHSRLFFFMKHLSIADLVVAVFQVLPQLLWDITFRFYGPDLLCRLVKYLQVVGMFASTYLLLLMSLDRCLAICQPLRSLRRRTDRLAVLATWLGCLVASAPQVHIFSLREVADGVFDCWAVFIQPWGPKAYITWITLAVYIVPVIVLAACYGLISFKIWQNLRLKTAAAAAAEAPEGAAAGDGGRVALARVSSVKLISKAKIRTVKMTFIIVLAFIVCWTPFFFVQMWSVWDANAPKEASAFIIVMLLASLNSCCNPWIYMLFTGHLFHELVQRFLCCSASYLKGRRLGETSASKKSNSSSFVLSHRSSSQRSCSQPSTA
- Test description: Agonist activity at human OT receptor expressed in CHO-K1 cells by luciferase reporter gene assay
- Type: functional, cell-based
- Condition details: read-out: EC50
Numbered stars: 1 amine (or outer) side, 2 acyl side, 3 side chain; on linkers, the order of the positions; unused ones are H or OH. Bridge positions count the residues as written; N and C are the ends. Square brackets hold non-standard residues; d marks the D form. Peptide text beside a SMILES is read from it. Orn(Me) = CN(CCC[C@H](N[*:1])C(=O)[*:2])[*:3]; X5 = CC(C)CCNCCC[C@H](N[*:1])C(=O)[*:2]; Ala(2-furyl) = N[C@@H](Cc1ccco1)C(=O)O; Orn(iPr) = CC(C)NCCC[C@H](N)C(=O)O; X1 = CCNCCC[C@H](N[*:1])C(=O)[*:2]; 2Thi = N[C@@H](Cc1cccs1)C(=O)O; Dab = NCC[C@H](N)C(=O)O
Answers are plain numbers, as −log10 of the molar value.

Worked set:
• CC[C@H](C)[C@@H]1NC(=O)[C@H](Cc2ccccc2)NC(=O)[C@@H](N)CSSC[C@@H](C(=O)N2CCC[C@H]2C(=O)N[C@@H](CCN)C(=O)NCC(N)=O)NC(=O)[C@H](CC(N)=O)NC(=O)[C@H](CCC(N)=O)NC1=O (H-CFIQNCP[Dab]G-NH2; disulfide 1-6) = 8.04
• CCNCCC[C@H](NC(=O)[C@@H]1CCCN1C(=O)[C@@H]1CSSC[C@H](N)C(=O)N[C@@H](Cc2ccccc2)C(=O)N[C@@H]([C@@H](C)CC)C(=O)N[C@@H](CCC(N)=O)C(=O)N[C@@H](CC(N)=O)C(=O)N1)C(=O)NCC(N)=O (H-CFIQNCP[X1]G-NH2; disulfide 1-6) = 7.49
• CC[C@H](C)[C@@H]1NC(=O)[C@H](Cc2ccco2)NC(=O)[C@@H](N)CSSC[C@@H](C(=O)N2CCC[C@H]2C(=O)N[C@@H](CCN)C(=O)NCC(N)=O)NC(=O)[C@H](CC(N)=O)NC(=O)[C@H](CC(N)=O)NC1=O (H-C[Ala(2-furyl)]INNCP[Dab]G-NH2; disulfide 1-6) = 6.11
• CC[C@H](C)[C@@H]1NC(=O)[C@H](Cc2ccccc2)NC(=O)[C@@H](N)CSSC[C@@H](C(=O)N2CCC[C@H]2C(=O)N[C@@H](CCCNC(C)C)C(=O)NCC(N)=O)NC(=O)[C@H](CC(N)=O)NC(=O)[C@H](CCCC(N)=O)NC1=O [SELEPRESSIN] = 5.96
• CC[C@H](C)[C@@H]1NC(=O)[C@H](Cc2cccs2)NC(=O)[C@@H](N)CSSC[C@@H](C(=O)N2CCC[C@H]2C(=O)N[C@@H](CCN)C(=O)NCC(N)=O)NC(=O)[C@H](CC(N)=O)NC(=O)[C@H](CCC(N)=O)NC1=O (H-C[2Thi]IQNCP[Dab]G-NH2; disulfide 1-6) = 7.54
• CC[C@H](C)[C@@H]1NC(=O)[C@H](Cc2cccs2)NC(=O)[C@@H](N)CSSC[C@@H](C(=O)N2CCC[C@H]2C(=O)N[C@@H](CCCNC(C)C)C(=O)NCC(N)=O)NC(=O)[C@H](CC(N)=O)NC(=O)[C@H](CCC(N)=O)NC1=O (H-C[2Thi]IQNCP[Orn(iPr)]G-NH2; disulfide 1-6) = 6.96
• CC[C@H](C)[C@@H]1NC(=O)[C@H](Cc2ccccc2)NC(=O)[C@@H](N)CSSC[C@@H](C(=O)N2CCC[C@H]2C(=O)N[C@@H](CCCNCCC(C)C)C(=O)NCC(N)=O)NC(=O)[C@H](CC(N)=O)NC(=O)[C@H](CCC(N)=O)NC1=O (H-CFIQNCP[X5]G-NH2; disulfide 1-6) = 7.36
• CC[C@H](C)[C@@H]1NC(=O)[C@H](Cc2ccco2)NC(=O)[C@@H](N)CSSC[C@@H](C(=O)N2CCC[C@H]2C(=O)N[C@@H](CCCNC(C)C)C(=O)NCC(N)=O)NC(=O)[C@H](CC(N)=O)NC(=O)[C@H](CCC(N)=O)NC1=O (H-C[Ala(2-furyl)]IQNCP[Orn(iPr)]G-NH2; disulfide 1-6) = 6.59

For every item below, please supply its pEC50.
1. CC[C@H](C)[C@@H]1NC(=O)[C@H](Cc2ccccc2)NC(=O)[C@@H](N)CSSC[C@@H](C(=O)N2CCC[C@H]2C(=O)N[C@@H](CCCNC(C)C)C(=O)NCC(N)=O)NC(=O)[C@H](CC(N)=O)NC(=O)[C@H](CCC(N)=O)NC1=O (H-CFIQNCP[Orn(iPr)]G-NH2; disulfide 1-6)
2. CC[C@H](C)[C@@H]1NC(=O)[C@H](Cc2ccccc2)NC(=O)[C@@H](N)CSSC[C@@H](C(=O)N2CCC[C@H]2C(=O)N[C@@H](CCCNC)C(=O)NCC(N)=O)NC(=O)[C@H](CC(N)=O)NC(=O)[C@H](CCC(N)=O)NC1=O (H-CFIQNCP[Orn(Me)]G-NH2; disulfide 1-6)
3. CC[C@H](C)[C@@H]1NC(=O)[C@H](Cc2ccco2)NC(=O)[C@@H](N)CSSC[C@@H](C(=O)N2CCC[C@H]2C(=O)N[C@@H](CCN)C(=O)NCC(N)=O)NC(=O)[C@H](CC(N)=O)NC(=O)[C@H](CCC(N)=O)NC1=O (H-C[Ala(2-furyl)]IQNCP[Dab]G-NH2; disulfide 1-6)

Out:
7.48
7.80
6.98
